- experimental system: T1, Human TROP2 ECD (31-274 AA), biotinylated (human, UniProt P09758 31-274, biotinylated (site not stated))
- T1 construct: also called tumor-associated calcium signal transducer 2; Human TROP2-biotin
- T1 sequence: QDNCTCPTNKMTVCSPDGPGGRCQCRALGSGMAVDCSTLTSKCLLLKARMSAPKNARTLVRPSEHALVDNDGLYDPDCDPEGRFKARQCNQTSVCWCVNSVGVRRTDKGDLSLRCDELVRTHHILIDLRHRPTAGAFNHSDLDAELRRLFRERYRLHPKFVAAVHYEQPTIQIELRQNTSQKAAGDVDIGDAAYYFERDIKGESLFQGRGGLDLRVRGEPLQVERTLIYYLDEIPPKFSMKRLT
- assay procedure: ELISA, ratio of EC50 to that of TBD-1 wt
endpoint name: Fold shift in EC50 relative to wt (fold)
Numeric answer only, unit fold assumed.

binder	endpoint name	result number
TBD-20 (anti-TROP2 Fab, HC Y107A) (Fab, V domains shown) VH: QVQLQQSGSELKKPGASVKVSCKASGYTFTNYGMNWVKQAPGQGLKWMGWINTYTGEPTYTDDFKGRFAFSLDTSVSTAYLQISSLKADDTAVYFCARGGFGSSYWAFDVWGQGSLVTVSS VL: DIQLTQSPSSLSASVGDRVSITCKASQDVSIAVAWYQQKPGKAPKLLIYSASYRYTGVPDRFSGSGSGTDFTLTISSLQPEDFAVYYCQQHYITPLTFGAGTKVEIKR	Fold shift in EC50 relative to wt	262

Incoming: GET /values?readout=Fold shift in EC50 relative to wt&item= TBD-22 (anti-TROP2 Fab, HC D109A) (Fab, V domains shown, also called TBD-22 (HC D109A mutant)) VH: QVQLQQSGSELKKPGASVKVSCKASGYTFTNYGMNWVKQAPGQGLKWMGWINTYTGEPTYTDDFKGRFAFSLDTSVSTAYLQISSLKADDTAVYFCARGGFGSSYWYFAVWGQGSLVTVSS VL: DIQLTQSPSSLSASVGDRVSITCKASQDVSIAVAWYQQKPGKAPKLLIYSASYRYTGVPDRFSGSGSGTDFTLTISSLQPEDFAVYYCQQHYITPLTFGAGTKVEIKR
Outgoing: 5.5

Incoming: Same thing, different binder: TBD-23 (anti-TROP2 Fab, HC V110A) (Fab, V domains shown) VH: QVQLQQSGSELKKPGASVKVSCKASGYTFTNYGMNWVKQAPGQGLKWMGWINTYTGEPTYTDDFKGRFAFSLDTSVSTAYLQISSLKADDTAVYFCARGGFGSSYWYFDAWGQGSLVTVSS VL: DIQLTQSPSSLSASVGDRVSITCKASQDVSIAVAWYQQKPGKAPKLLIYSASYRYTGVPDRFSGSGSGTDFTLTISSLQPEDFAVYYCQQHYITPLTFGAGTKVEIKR
Outgoing: 1

Incoming: Same thing, different binder: TBD-21 (anti-TROP2 Fab, HC F108A) (Fab, V domains shown, also called TBD-21 (HC F108A mutant)) VH: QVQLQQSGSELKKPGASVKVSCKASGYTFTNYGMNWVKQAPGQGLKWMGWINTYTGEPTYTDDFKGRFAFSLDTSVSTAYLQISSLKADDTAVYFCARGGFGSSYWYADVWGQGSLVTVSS VL: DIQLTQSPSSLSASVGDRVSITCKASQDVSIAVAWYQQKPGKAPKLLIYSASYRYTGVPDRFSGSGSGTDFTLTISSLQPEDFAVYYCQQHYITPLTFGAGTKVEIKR
Outgoing: 20.5

Incoming: Same thing, different binder: TBD-17 (anti-TROP2 Fab, HC S104A) (Fab, V domains shown, also called TBD-17 (HC S104A mutant)) VH: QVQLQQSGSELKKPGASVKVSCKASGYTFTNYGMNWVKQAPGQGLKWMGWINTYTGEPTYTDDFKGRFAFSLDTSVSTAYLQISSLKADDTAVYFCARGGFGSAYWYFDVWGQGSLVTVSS VL: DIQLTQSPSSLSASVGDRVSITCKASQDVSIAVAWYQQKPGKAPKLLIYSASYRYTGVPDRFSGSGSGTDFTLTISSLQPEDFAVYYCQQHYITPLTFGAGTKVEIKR
Outgoing: 2

Incoming: Same thing, different binder: TBD-18 (anti-TROP2 Fab, HC Y105A) (Fab, V domains shown) VH: QVQLQQSGSELKKPGASVKVSCKASGYTFTNYGMNWVKQAPGQGLKWMGWINTYTGEPTYTDDFKGRFAFSLDTSVSTAYLQISSLKADDTAVYFCARGGFGSSAWYFDVWGQGSLVTVSS VL: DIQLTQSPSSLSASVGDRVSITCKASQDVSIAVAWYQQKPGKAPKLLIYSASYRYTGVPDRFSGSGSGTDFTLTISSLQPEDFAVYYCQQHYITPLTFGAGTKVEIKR
Outgoing: 4000
